tested on: K4 kissing-loop RNA reporter; assay: apparent KD of K4 kissing-loop reporter; higher = weaker reporter binding; settings: Eterna round: R107; input ligand: FMN 200 uM;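 also: bound reporter read as fluorescence of individual clusters on recovered sequencing chips by microscopy, with normalized cluster intensities fitted with a binding model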
reportedProperty: apparent KD of K4 kissing-loop reporter (nM)
Write the number in nM without appending the unit.

Observed apparent KD of K4 kissing-loop reporter on K4 kissing-loop RNA reporter for ACAUCGGUUGAGAGUGAUGUUCCUUGUGUUCGAGGACCGGUACGGCCGCCACUCGGGUAGAAAAUAACAGAUGUGUUUCCUUUUU [BDazzled - #18 SS Tryptophan A] , please.
164

Same again, this time with AAGCAGUCUCUUGUAGUCAUCGAAGAUGAACGAGGACCGGUACGGCCGCCACUCGGAGUGAUGUUCCGAAGACUGCAAAAUAAAA [MatMod 17 - Jieux - Exclusion - Tryptophan A]
581

// same read-out, input: CCGCUGCCCUCAGGAUAUUAAGUAUUAGUGAUGUUAGUAAACCGAUGGCGAAAGCCAUCGGUAUGUUGAGAAGGGAGGGUAGCGG [whbob_SS_FMNB__2th199]
370

Further, for CUGGGUUGACGAAAAGUCAACAAAAGAGAAGGAGCGCACGAAAGUGCAGGUAGGUCGCUCAAUCCAGUGAUGUUGGGUCAUCCAG [#SwitchBubble 14 #K4Late] ?
568

Param item: AUUUGUUUAUGCGAUACCAGACUAAGCAGUGAUGUUGCUUUUAUUUUUGAAUUUUAAAUAGUCCCUUGGCAGCGCUAUGUCUGUA [#06 K4 Theophylline B Same State]
127

* * *

system: MS2 coat protein; experiment: apparent KD of MS2 coat protein; designed switch direction (-1 OFF switch, 1 ON switch): 1; higher = weaker reporter binding; conditions: input ligand: none
Give apparent KD of MS2 coat protein for every item shown.
Response body: numeric value in nM, unit text excluded.

Recorded apparent KD of MS2 coat protein of CGUGAACAUGAGGAUCACCCAUGUGAAAAACGUAGAGGAUAUGUCACAUGAGUGUAAAAGACAGAAGGCUAUCGUG [Mod 2 of Round 1 starryjess' Mod pf Nando] (Eterna round: R96, puzzle: Same State 1) , please.
243

Then this sequence: GCUGCAAGGGCAGGAUAUGGGUCCAAAGCGCAAGUGCGCUUUGGUACAUGAGGAUCACCCAUGUCCCAGAAGGGCCCAAACAGC [Bientierqu] (Eterna round: R96, puzzle: Same State NG 2)
121

Try AACAGACAUGAGGAUCACCCAUGUAGAAUUAUGGGAGGAUAUACAAAGACGAGAGUCAGAGUAGAAGGCCUAGGAC [salish99-ss1-163] (Eterna round: R96, puzzle: Same State 1) next.
51.7

* * *

system: MS2 coat protein; experiment: apparent KD of MS2 coat protein; designed switch direction (-1 OFF switch, 1 ON switch): -1; higher = weaker reporter binding; conditions: Eterna round: R95; input ligand: FMN 200 uM
# apparent KD of MS2 coat protein >= 30 nM gives TRUE, anything below gives FALSE

Is the recorded value of apparent KD of MS2 coat protein equal to or greater than 30 nM for this sequence? GACCGGACGUGGUCUGGUAACAUGAGGAUCACCCAUGUAGGUCUAAGAACAUGCCUUUUGCACGCUCGUCUUAUAUA [JR_SV3TOV1_Sub063] (puzzle: Sensor v3, turn-off variant 1)
TRUE

And what about the sequence AGAAAUGCCCAUGGCCACAAGCUUCUUGCUUGUCUUACUACAUGAGGAUCACCCAUGUAACAUGGGCUCCUGAUAAU [Maonesra] (puzzle: Sensor v3, turn-off variant 2) ?
FALSE

Could you do the same for AGUACUAACACGUUUGUGUUAGUACAAUAAGCUUGUGAAACAUGAGGAUCACCCAUGUCCUCAUAAGCUCGUCUUAU [salish99_TOv2_r3_069] (puzzle: Sensor v3, turn-off variant 2) , please?
FALSE

Same for AGUUGGCGAGGAUAUACAUGAGGAUCACCCAUGUGAAUAAGAAUAGUGAGGAAGAAAAGUAGAAGGCGCUGACA [Mat - Exclusion 3 - Mod of Salish D36] (puzzle: Exclusion 3)
TRUE

Now the sequence UAUUAACAAGCAAGAUCCUACAUGAGGAUCACCCAUGUGCUCGUCUUGUAAGGUACUGUGACGAAAGUCACGGUACC [Sensor 3, v1 - 71] (puzzle: Sensor v3, turn-off variant 1)
FALSE

Likewise for ACAAGCUUUUUGCUCGGCUACAUGAGGAUCACCCAUGUUGUGUGUUAUUGUUUUUGAUUGUUCGUGCGCAGCAGGUA [JR_SV3TOV1_Sub073] (puzzle: Sensor v3, turn-off variant 1) ?
TRUE

Another sequence to look at: AGUAGUAGUAUCCGAUCCUACAUGAGGAUCACCCAUGUAGCUGGACGUGCACGCGAUGCUCGUCAGACUACCAGAUG [salish99_TOv1_r3_044] (puzzle: Sensor v3, turn-off variant 1)
TRUE

Then this sequence: GGUUGGCGAGGAUAUACAUGAGGAUCACCCAUGUGAGAGAAAAAAGUCAGGAAGAAAAGUAGAAGGCGCUGACG [salish99_ex3_r3_028] (puzzle: Exclusion 3)
TRUE

# iterate: AUAGAGUCAGGAUAUACAGGUGGAGGAGAGCAGCAUAAGGAGUAGAAGGGACAUGAGGAUCACCCAUGUAAGUG [JR_Exclu4_Sub059] (puzzle: Exclusion 4)
TRUE

Next up: AAAUACAAGUAAAGAUCCUACAUGAGGAUCACCCAUGUGCUCGUCUUGUAAAGUACUAUCACGAAAGUGAUAGUACA [Sensor 3, v1 - 22] (puzzle: Sensor v3, turn-off variant 1)
TRUE
